// values below are reported switch fluorescence ratio
- Test system: ATP;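 also: ATP exposure 15 min at 22 °C before imaging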
- ASSAY_OVERVIEW: switch fluorescence ratio, 500 uM ATP over buffer (Cy3 cluster intensity, sum of 5 cycles each) (fold (ratio)); higher = stronger signal-on switching upon ATP binding; sequences stand for … in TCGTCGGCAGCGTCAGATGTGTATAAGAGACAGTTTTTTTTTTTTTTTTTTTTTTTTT…TC
- MEASUREMENT_SETUP: aptamer strand: ATP DNA aptamer (quencher-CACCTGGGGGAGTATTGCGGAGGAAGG + anchor), 100 nM annealed; ATP concentration: 500 uM
Keep it simple and answer with nothing but the number.

{"RECORD_SEQUENCE": "CGATATTGCA", "switch fluorescence ratio": 1.02}
{"RECORD_SEQUENCE": "TGCTTTGGTT", "switch fluorescence ratio": 1.01}
{"RECORD_SEQUENCE": "TTCCACATCC", "switch fluorescence ratio": 1.07}
{"RECORD_SEQUENCE": "GAGGGTCCTA", "switch fluorescence ratio": 0.999}
{"RECORD_SEQUENCE": "GGTTGGCGTT", "switch fluorescence ratio": 0.961}

Can you look up the measured switch fluorescence ratio of GATATTTTGG for me? 0.982

Can you look up the measured switch fluorescence ratio of CATTATCATT for me? 0.97

Can you look up the measured switch fluorescence ratio of TTAGGCTGAT for me? 0.981

Can you look up the measured switch fluorescence ratio of AGTAGATTCC for me? 1.04

Can you look up the measured switch fluorescence ratio of TAAGGGAATT for me? 1
